Test system: Mycobacterium tuberculosis variant bovis
protocol: Inhibition of MmpL3 C1932G/F644L mutant in Mycobacterium bovis BCG B47-4 assessed as reduction in TDM level at 1XMIC90 treated for 1 hr followed by incubation with [14C]acetate for 1 to 3 hrs by thin layer chromatography
condition parameters: time 2-4 hrs
Active and inactive are the calls of the source. The calls are words filed in the database; no cut-off is given here.
experimental endpoint: inhibition

Please review the entries below; each comes with its answer.
smiles string | inhibition
FC(F)(F)c1ccc2cc(CNC3CCCCCCC3)[nH]c2c1 | inactive
O=C(NC1CCCCCCC1)c1cc2ccccc2s1 | inactive
c1ccc2[se]c(CNC3CCCCCCC3)cc2c1 | inactive
O=C(NC1CCCCCCC1)c1cc2ccccc2[se]1 | inactive
Cc1c(CN2CCN(C)CC2)cc(-c2ccc(Cl)cc2)n1-c1ccc(Cl)cc1 | inactive

Could you share which inhibition value was measured for O=C(NC1CCCCCCC1)c1cc2ccc(C(F)(F)F)cc2[nH]1 ?
inactive

Entry under review: c1ccc2sc(CNC3CCCCCCC3)cc2c1 . Reported inhibition?
inactive
